Assay Explanation: Apparent volume of distribution in tuberculosis patient at 450 mg, po
Format: ADME, organism-based
Applied Conditions: human, in vivo, read-out: Vc/F
Endpoint Name: Vd/F (L)
Give bare numbers, in L.

Input: Can you look up the measured Vd/F of `CO[C@H]1/C=C/O[C@@]2(C)Oc3c(C)c(O)c4c(O)c(c(/C=N/N5CCN(C)CC5)c(O)c4c3C2=O)NC(=O)/C(C)=C\C=C\[C@H](C)[C@H](O)[C@@H](C)[C@@H](O)[C@@H](C)[C@H](OC(C)=O)[C@@H]1C` for me?
Output: 25.3

====

Assay Explanation: Tmax in tuberculosis patient at 750 mg, po coadministered with 600 mg, po rifampin
Type: ADME, organism-based
Applied Conditions: human, in vivo
Endpoint Name: Tmax
# answer = value followed by unit

Input: Dear colleague, I am looking for the recorded Tmax of the following compound: `CC[C@@H](CO)NCCN[C@@H](CC)CO`
Output: 2.5 h

====

Assay Explanation: Cmax in tuberculosis patient at 1500 mg, po coadministered with 600 mg, po rifampin
Type: ADME, organism-based
Parameters: dose 1500 mg, route oral
Applied Conditions: human, in vivo
Endpoint Name: Cmax (ng/mL)
Numbers only, in ng/mL.

Input: What measured Cmax goes with NC(=O)c1cnccn1 [PYRAZINAMIDE] ?
Output: 46000

====

Assay Explanation: AUC (0 to 24 hrs) in tuberculosis patient at 750 mg, po coadministered with 600 mg, po rifampin
Format: ADME, organism-based
Design: time < 24 hr, dose 750 mg, route oral
Applied Conditions: human, plasma
Endpoint Name: AUC(0-t) at 24 h
Lab note: write values as number then unit, every time.

Input: Endpoint output: AUC(0-t) at 24 h of `CC[C@@H](CO)NCCN[C@@H](CC)CO` . Value?
Output: 14700 ng·h/mL

====

Assay Explanation: AUC (0 to 24 hrs) in tuberculosis patient at 750 mg, po coadministered with 450 mg, po rifampin
Format: ADME, organism-based
Parameters: dose 750 mg, time < 24 hr, route oral
Applied Conditions: human, plasma
Endpoint Name: AUC(0-t) at 24 h (ng·h/mL)
One number for each entry, in ng·h/mL.

Input: Requested field: AUC(0-t) at 24 h. Item: `CC[C@@H](CO)NCCN[C@@H](CC)CO`
Output: 14400

====

Assay Explanation: Apparent volume of distribution in tuberculosis patient at 600 mg, po
Type: ADME, organism-based
Applied Conditions: human, in vivo, read-out: Vc/F
Endpoint Name: Vd/F (L)
One number for each entry, in L.

Input: Item `CO[C@H]1/C=C/O[C@@]2(C)Oc3c(C)c(O)c4c(O)c(c(/C=N/N5CCN(C)CC5)c(O)c4c3C2=O)NC(=O)/C(C)=C\C=C\[C@H](C)[C@H](O)[C@@H](C)[C@@H](O)[C@@H](C)[C@H](OC(C)=O)[C@@H]1C` has what recorded Vd/F?
Output: 23.3

====

Assay Explanation: Half life in tuberculosis patient at 1500 mg, po coadministered with 600 mg, po rifampin
Assay type: ADME, organism-based
Applied Conditions: human, in vivo
Endpoint Name: half-life (h)
Give bare numbers, in h.

Input: Endpoint output: half-life of NC(=O)c1cnccn1 [PYRAZINAMIDE] . Value?
Output: 6.9

====

Assay Explanation: Apparent clearance in tuberculosis patient at 600 mg, po
Type: ADME, organism-based
Applied Conditions: human, in vivo
Endpoint Name: CL/F (mL/min)
Numbers only, in mL/min.

Input: Which value of CL/F has been reported for CO[C@H]1/C=C/O[C@@]2(C)Oc3c(C)c(O)c4c(O)c(c(/C=N/N5CCN(C)CC5)c(O)c4c3C2=O)NC(=O)/C(C)=C\C=C\[C@H](C)[C@H](O)[C@@H](C)[C@@H](O)[C@@H](C)[C@H](OC(C)=O)[C@@H]1C [RIFAMPIN] in the records?
Output: 125

====

Assay Explanation: Cmax in tuberculosis patient at 1500 mg, po coadministered with 450 mg, po rifampin
Format: ADME, organism-based
Parameters: dose 1500 mg, route oral
Applied Conditions: human, in vivo
Endpoint Name: Cmax
Kindly write the number and append the unit.

Input: Requested read-out: Cmax. Entry: NC(=O)c1cnccn1 [PYRAZINAMIDE]
Output: 43800 ng/mL

====

Assay Explanation: Tmax in tuberculosis patient at 450 mg, po
Type: ADME, organism-based
Applied Conditions: human, in vivo
Endpoint Name: Tmax

Input: What measured Tmax goes with `CO[C@H]1/C=C/O[C@@]2(C)Oc3c(C)c(O)c4c(O)c(c(/C=N/N5CCN(C)CC5)c(O)c4c3C2=O)NC(=O)/C(C)=C\C=C\[C@H](C)[C@H](O)[C@@H](C)[C@@H](O)[C@@H](C)[C@H](OC(C)=O)[C@@H]1C` ?
Output: 2 h

====

Assay Explanation: Tmax in tuberculosis patient at 1500 mg, po coadministered with 600 mg, po rifampin
Format: ADME, organism-based
Applied Conditions: human, in vivo
Endpoint Name: Tmax (h)
Answers are plain numbers, in h.

Input: Given the molecule NC(=O)c1cnccn1 [PYRAZINAMIDE] , what is its reported Tmax?
Output: 2.5

====

Assay Explanation: clinical
Applied Conditions: human, plasma, po, 450 mg
Description: AUC (0 to 24 hrs) in tuberculosis patient at 450 mg, po
Endpoint Name: AUC(0-t) at 24 h (ng·h/mL)
Answers are plain numbers, in ng·h/mL.

Input: What measured AUC(0-t) at 24 h goes with CO[C@H]1/C=C/O[C@@]2(C)Oc3c(C)c(O)c4c(O)c(c(/C=N/N5CCN(C)CC5)c(O)c4c3C2=O)NC(=O)/C(C)=C\C=C\[C@H](C)[C@H](O)[C@@H](C)[C@@H](O)[C@@H](C)[C@H](OC(C)=O)[C@@H]1C [RIFAMPIN] ?
Output: 48500

====

Assay Explanation: Half life in tuberculosis patient at 1500 mg, po coadministered with 450 mg, po rifampin
Format: ADME, organism-based
Applied Conditions: human, in vivo
Endpoint Name: half-life (h)
Numbers only, in h.

Input: What value of half-life has been reported for the following compound? NC(=O)c1cnccn1 [PYRAZINAMIDE]
Output: 6.6

====

Assay Explanation: Cmax in human tuberculosis patient at 600 mg, po
Applied Conditions: in vivo
Endpoint Name: Cmax (ng/mL)
Answers are plain numbers, in ng/mL.

Input: Query (molecule): `CO[C@H]1/C=C/O[C@@]2(C)Oc3c(C)c(O)c4c(O)c(c(/C=N/N5CCN(C)CC5)c(O)c4c3C2=O)NC(=O)/C(C)=C\C=C\[C@H](C)[C@H](O)[C@@H](C)[C@@H](O)[C@@H](C)[C@H](OC(C)=O)[C@@H]1C` ; field requested: Cmax
Output: 15600

====

Assay Explanation: AUC (0 to 24 hrs) in tuberculosis patient at 1500 mg, po coadministered with 450 mg, po rifampin
Assay type: ADME, organism-based
Parameters: time < 24 hr, dose 1500 mg, route oral
Applied Conditions: human, plasma
Endpoint Name: AUC(0-t) at 24 h (µg·h/mL)
One number for each entry, in µg·h/mL.

Input: So what does the record say about AUC(0-t) at 24 h for NC(=O)c1cnccn1 [PYRAZINAMIDE] ?
Output: 473

====

Assay Explanation: AUC (0 to 24 hrs) in tuberculosis patient at 1500 mg, po coadministered with 600 mg, po rifampin
Type: ADME, organism-based
Design: dose 1500 mg, time < 24 hr, route oral
Applied Conditions: human, plasma
Endpoint Name: AUC(0-t) at 24 h (µg·h/mL)
Answers are plain numbers, in µg·h/mL.

Input: Name the recorded AUC(0-t) at 24 h for NC(=O)c1cnccn1 [PYRAZINAMIDE] .
Output: 514
